Hey, just so you know, these numbers are from patent US12595253B2.

For each of the molecules below, state its IC50.
# targetOrSystem: JAK2V617F (Homo sapiens, UniProt O60674, V617F)
# Sequence (O60674 whole entry V617F): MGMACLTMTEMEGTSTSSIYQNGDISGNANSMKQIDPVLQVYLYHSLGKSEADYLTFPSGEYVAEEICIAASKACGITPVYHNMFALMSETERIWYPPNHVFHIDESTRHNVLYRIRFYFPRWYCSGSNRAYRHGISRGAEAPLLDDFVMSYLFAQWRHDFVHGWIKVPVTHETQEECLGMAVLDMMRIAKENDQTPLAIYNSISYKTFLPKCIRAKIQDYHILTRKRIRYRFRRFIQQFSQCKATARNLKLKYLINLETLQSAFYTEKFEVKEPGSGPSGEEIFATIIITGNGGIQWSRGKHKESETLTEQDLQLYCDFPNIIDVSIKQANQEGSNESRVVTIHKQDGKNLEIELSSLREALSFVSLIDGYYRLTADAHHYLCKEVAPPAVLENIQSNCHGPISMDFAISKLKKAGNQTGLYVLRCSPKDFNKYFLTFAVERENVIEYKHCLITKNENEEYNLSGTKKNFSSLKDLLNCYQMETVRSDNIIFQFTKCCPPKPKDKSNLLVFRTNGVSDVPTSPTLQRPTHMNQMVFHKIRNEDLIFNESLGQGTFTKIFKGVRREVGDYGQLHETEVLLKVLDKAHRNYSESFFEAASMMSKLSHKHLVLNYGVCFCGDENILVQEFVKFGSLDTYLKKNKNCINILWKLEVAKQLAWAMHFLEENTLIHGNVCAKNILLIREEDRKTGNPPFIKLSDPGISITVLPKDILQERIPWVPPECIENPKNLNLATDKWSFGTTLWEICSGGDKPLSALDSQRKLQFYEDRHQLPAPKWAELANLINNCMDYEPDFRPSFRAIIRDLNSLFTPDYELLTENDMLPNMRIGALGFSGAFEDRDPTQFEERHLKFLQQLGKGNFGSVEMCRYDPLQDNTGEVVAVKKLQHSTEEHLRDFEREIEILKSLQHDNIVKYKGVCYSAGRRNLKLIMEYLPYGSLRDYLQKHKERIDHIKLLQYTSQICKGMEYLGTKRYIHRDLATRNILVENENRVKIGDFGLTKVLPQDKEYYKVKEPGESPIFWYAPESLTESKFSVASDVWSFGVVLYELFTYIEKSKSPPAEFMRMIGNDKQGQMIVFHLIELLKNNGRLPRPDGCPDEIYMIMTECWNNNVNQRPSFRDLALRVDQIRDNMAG
# assayText: JAK2V617F microfluidic kinase assay (Caliper EZ Reader II, FAM labeled peptide substrate)
# conditionDetails: JAK2V617F 2.5 nM, 1 mM ATP
Report the figure in nM without appending any unit label.

Task item: What measured IC50 goes with C[C@@H](C#N)NC(=O)c1ccc(-c2nc(Nc3cnn(C4CCN(C(=O)C(C)(C)C)CC4)c3)ncc2Cl)cc1 ?
Reply: 1.32

Task item: Please give the result for Cc1cnc(Nc2cnn(C3CCN(C)CC3)c2)nc1-c1ccc(C(=O)NCC#N)cc1 too.
Reply: 57.2

Task item: Please give the result for Cc1cnc(Nc2cnn(C)c2)nc1-c1ccc(C(=O)N[C@H](C)C#N)cc1 too.
Reply: 362

Task item: Please give the result for Cc1cnc(Nc2cnn(C3CCN(CC(F)(F)F)CC3)c2)nc1-c1ccc(C(=O)NCC#N)cc1 too.
Reply: 46.1

Task item: Please give the result for CC(=O)N1CCC(n2cc(Nc3ncc(C)c(-c4ccc(C(=O)NCC#N)cc4)n3)cn2)CC1 too.
Reply: 13.7

Task item: Please give the result for Cc1cnc(Nc2cnn(CC(F)(F)F)c2)nc1-c1ccc(C(=O)NCC#N)cc1 too.
Reply: 193

Task item: Please give the result for C[C@@H](C#N)NC(=O)c1ccc(-c2nc(Nc3cnn(C4CCN(C)CC4)c3)ncc2Cl)cc1 too.
Reply: 45.2

Task item: Please give the result for Cc1cnc(Nc2cnn(C3CC3)c2)nc1-c1ccc(C(=O)NCC#N)cc1 too.
Reply: 47.5

Task item: Please give the result for Cc1cnc(Nc2cnn(C3CCN(C)C(=O)C3)c2)nc1-c1ccc(C(=O)NCC#N)cc1 (centres unmarked) too.
Reply: 51.7

Task item: Please give the result for Cc1cnc(Nc2cnn(C3CCC(F)(F)CC3)c2)nc1-c1ccc(C(=O)N[C@@H](C)C#N)cc1 too.
Reply: 2.17

Task item: Please give the result for Cc1cnc(Nc2cnn(C)c2)nc1-c1ccc(C(=O)N[C@@H](C)C#N)cc1 too.
Reply: 53

Task item: Please give the result for Cc1cnc(Nc2cnn(C3CN(C(=O)C4CC4)C3)c2)nc1-c1ccc(C(=O)N[C@@H](C)C#N)cc1 too.
Reply: 42.8

Task item: Please give the result for Cc1cnc(Nc2cnn(C3CCOCC3)c2)nc1-c1ccc(C(=O)N2CC(C#N)C2)cc1 too.
Reply: 131

Task item: Please give the result for Cc1cnc(Nc2cnn(C3CC3)c2)nc1-c1ccc(C(=O)NCC#N)nc1 too.
Reply: 67.8

Task item: Please give the result for CC[C@@H](C#N)NC(=O)c1ccc(-c2nc(Nc3cnn(C4CCOCC4)c3)ncc2C)cc1 too.
Reply: 3.03

Task item: Please give the result for COCCn1cc(Nc2ncc(Cl)c(-c3ccc(C(=O)N[C@@H](C)C#N)cc3)n2)cn1 too.
Reply: 43.9

Task item: Please give the result for Cc1cnc(Nc2cnn(C3CCOCC3)c2)nc1-c1ccc(C(=O)N[C@@H](C)C(F)(F)F)cc1 too.
Reply: 8.91

Task item: Please give the result for Cc1cnc(Nc2cnn(C3CCN(C)CC3)c2)nc1-c1ccc(C(=O)N[C@@H](C)C#N)cc1 too.
Reply: 31.7

---

# targetOrSystem: JAK2 (Homo sapiens)
# Construct: purchased Carna Biosciences
# Sequence (O60674 whole entry): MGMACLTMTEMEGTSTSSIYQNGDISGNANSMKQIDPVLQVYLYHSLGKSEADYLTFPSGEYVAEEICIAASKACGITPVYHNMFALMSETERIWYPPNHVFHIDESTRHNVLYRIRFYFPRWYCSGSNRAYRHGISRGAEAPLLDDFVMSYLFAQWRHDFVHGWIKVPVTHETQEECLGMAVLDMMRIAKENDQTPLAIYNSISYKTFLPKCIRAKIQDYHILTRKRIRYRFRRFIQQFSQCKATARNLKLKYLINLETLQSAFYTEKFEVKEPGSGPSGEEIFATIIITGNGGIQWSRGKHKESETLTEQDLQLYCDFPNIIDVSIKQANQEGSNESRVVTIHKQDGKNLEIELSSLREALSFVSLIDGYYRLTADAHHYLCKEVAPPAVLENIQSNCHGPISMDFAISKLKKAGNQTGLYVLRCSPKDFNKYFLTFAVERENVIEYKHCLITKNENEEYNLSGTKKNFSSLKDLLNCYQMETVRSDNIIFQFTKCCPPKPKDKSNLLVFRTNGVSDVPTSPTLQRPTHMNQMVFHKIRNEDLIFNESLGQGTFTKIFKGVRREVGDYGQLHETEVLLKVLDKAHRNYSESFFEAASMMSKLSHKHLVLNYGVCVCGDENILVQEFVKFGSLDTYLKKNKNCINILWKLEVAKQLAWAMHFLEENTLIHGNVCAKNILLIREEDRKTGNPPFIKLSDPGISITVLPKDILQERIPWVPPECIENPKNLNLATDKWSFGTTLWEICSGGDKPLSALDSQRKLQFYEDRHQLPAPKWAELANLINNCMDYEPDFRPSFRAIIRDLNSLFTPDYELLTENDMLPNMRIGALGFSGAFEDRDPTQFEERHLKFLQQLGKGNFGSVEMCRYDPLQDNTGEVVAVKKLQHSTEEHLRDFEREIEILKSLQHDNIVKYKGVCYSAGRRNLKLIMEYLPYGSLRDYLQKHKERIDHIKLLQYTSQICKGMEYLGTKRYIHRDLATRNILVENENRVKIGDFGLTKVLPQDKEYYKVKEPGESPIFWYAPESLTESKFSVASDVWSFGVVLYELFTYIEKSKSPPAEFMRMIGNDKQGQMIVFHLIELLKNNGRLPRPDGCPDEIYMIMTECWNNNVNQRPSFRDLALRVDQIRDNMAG
# assayText: JAK2 microfluidic kinase assay (Caliper EZ Reader II, FAM labeled peptide substrate)
# Assay type: biochemical
# conditionDetails: IC50 JAK2 ([…]) (1 mM ATP), 1 mM ATP
Mark Fulfilled only for IC50 values smaller than 5 nM; exact matches and larger values are Not fulfilled.

Task item: In the record for CC1(C)CC(n2cc(Nc3ncc(Cl)c(-c4ccc(C(=O)NCC#N)cc4)n3)cn2)CC(C)(C)O1 , is IC50 less than 5 nM?
Reply: Fulfilled

Task item: Please give the result for Cc1cnc(Nc2cnn(C3CCN(C(=O)C4(F)CC4)CC3)c2)nc1-c1ccc(C(=O)NCC#N)cc1 too.
Reply: Fulfilled

Task item: Please give the result for N#CCNC(=O)c1ccc(-c2nc(Nc3cnn(C4CCN(C(=O)CO)CC4)c3)ncc2Cl)cc1 too.
Reply: Fulfilled

Task item: Please give the result for Cc1cnc(Nc2cnn(C3CCN(C(=O)C4CC4)CC3)c2)nc1-c1ccc(C(=O)NCC#N)cc1 too.
Reply: Fulfilled

Task item: Please give the result for Cc1cnc(Nc2cnn(C3CCC(O)CC3)c2)nc1-c1ccc(C(=O)NCC#N)cc1 (stereo not shown) too.
Reply: Fulfilled

Task item: Please give the result for Cc1cnc(Nc2cnn(C3CC4CCC(C3)N4CC(F)(F)F)c2)nc1-c1ccc(C(=O)NCC#N)cc1 (stereo not shown) too.
Reply: Not fulfilled

Task item: Please give the result for N#CCNC(=O)c1ccc(-c2nc(Nc3cnn(CC#N)c3)ncc2Cl)cc1 too.
Reply: Not fulfilled

Task item: Please give the result for Cc1cnc(Nc2cnn(C3CCN(C)CC3)c2)nc1-c1ccc(C(=O)NCC#N)cc1 too.
Reply: Fulfilled

Task item: Please give the result for Cc1cnc(Nc2cnn(C3CCN(S(C)(=O)=O)CC3)c2)nc1-c1ccc(C(=O)NCC2(C#N)CC2)cc1 too.
Reply: Fulfilled

Task item: Please give the result for Cc1cnc(Nc2cnn(C3CCN(C(=O)C4CC4)CC3)c2)nc1-c1ccc(C(=O)N[C@@H](C)C#N)cc1 too.
Reply: Fulfilled

Task item: Please give the result for COC[C@@H](C#N)NC(=O)c1ccc(-c2nc(Nc3cnn(CCO)c3)ncc2C)cc1 too.
Reply: Not fulfilled

Task item: Please give the result for CC[C@@H](C#N)NC(=O)c1ccc(-c2nc(Nc3cnn(C4CCNCC4)c3)ncc2Cl)cc1 too.
Reply: Fulfilled

Task item: Please give the result for Cc1cnc(Nc2cnn(C3CCN(C(=O)CO)CC3)c2)nc1-c1ccc(C(=O)NCC#N)cc1 too.
Reply: Fulfilled
